Tested on: T1, protein A (UniProt P38507 37-477)
T1 construct: also called Protein A superantigen
Method notes: Heat/Cool phage ELISA: phage-displayed VH, 80 C 10 min then 4 C 10 min, captured on coated protein A; signal as % of untreated sample
Method: The aggregation-resistance of clones was analyzed by measuring retention of signal after heat incubation in a phage ELISA format (McCafferty et al., 1990; Jespers et al., 2004). […] After three washes with PBS, bound phage particles were detected using an Extravidin-HRP conjugate (Sigma) and 3,3′,5,5′-tetramethylbenzidine (TMB) substrate. Absorbance was calculated by subtracting measurements at 450 and 650 nm. […]
Below: a set of entries, each annotated with reported Retained binding to protein A (%).

>  <Binder>
DP47 VH S31E (other, name in Kabat numbering) VH: QVQLLESGGGLVQPGGSLRLSCAASGFTFSEYAMSWVRQAPGKGLEWVSAISGSGGSTYYADSVKGRFTISRDNSKNTLYLQMNSLRAEDTAVYYCAKSYGAFDYWGQGTLVTVSS

>  <Quantity unit>
%

>  <Retained binding to protein A (%)>
6.1

$$$$
>  <Binder>
DP47 VH S35E (other, name in Kabat numbering) VH: QVQLLESGGGLVQPGGSLRLSCAASGFTFSSYAMEWVRQAPGKGLEWVSAISGSGGSTYYADSVKGRFTISRDNSKNTLYLQMNSLRAEDTAVYYCAKSYGAFDYWGQGTLVTVSS

>  <Quantity unit>
%

>  <Retained binding to protein A (%)>
4.5

$$$$
>  <Binder>
DP47 VH T28D (other, name in Kabat numbering) VH: QVQLLESGGGLVQPGGSLRLSCAASGFDFSSYAMSWVRQAPGKGLEWVSAISGSGGSTYYADSVKGRFTISRDNSKNTLYLQMNSLRAEDTAVYYCAKSYGAFDYWGQGTLVTVSS

>  <Quantity unit>
%

>  <Retained binding to protein A (%)>
25.1

$$$$
>  <Binder>
DP47 VH S31D (other, name in Kabat numbering) VH: QVQLLESGGGLVQPGGSLRLSCAASGFTFSDYAMSWVRQAPGKGLEWVSAISGSGGSTYYADSVKGRFTISRDNSKNTLYLQMNSLRAEDTAVYYCAKSYGAFDYWGQGTLVTVSS

>  <Quantity unit>
%

>  <Retained binding to protein A (%)>
21.3

$$$$
>  <Binder>
DP47 VH T28E (other, name in Kabat numbering) VH: QVQLLESGGGLVQPGGSLRLSCAASGFEFSSYAMSWVRQAPGKGLEWVSAISGSGGSTYYADSVKGRFTISRDNSKNTLYLQMNSLRAEDTAVYYCAKSYGAFDYWGQGTLVTVSS

>  <Quantity unit>
%

>  <Retained binding to protein A (%)>
6.5

$$$$
>  <Binder>
DP47 VH Y32D (other, name in Kabat numbering) VH: QVQLLESGGGLVQPGGSLRLSCAASGFTFSSDAMSWVRQAPGKGLEWVSAISGSGGSTYYADSVKGRFTISRDNSKNTLYLQMNSLRAEDTAVYYCAKSYGAFDYWGQGTLVTVSS

>  <Quantity unit>
%

>  <Retained binding to protein A (%)>
41.8

$$$$
